Target: human CXCR3A (Homo sapiens (Human), UniProt P49682)
Sequence (P49682 whole entry): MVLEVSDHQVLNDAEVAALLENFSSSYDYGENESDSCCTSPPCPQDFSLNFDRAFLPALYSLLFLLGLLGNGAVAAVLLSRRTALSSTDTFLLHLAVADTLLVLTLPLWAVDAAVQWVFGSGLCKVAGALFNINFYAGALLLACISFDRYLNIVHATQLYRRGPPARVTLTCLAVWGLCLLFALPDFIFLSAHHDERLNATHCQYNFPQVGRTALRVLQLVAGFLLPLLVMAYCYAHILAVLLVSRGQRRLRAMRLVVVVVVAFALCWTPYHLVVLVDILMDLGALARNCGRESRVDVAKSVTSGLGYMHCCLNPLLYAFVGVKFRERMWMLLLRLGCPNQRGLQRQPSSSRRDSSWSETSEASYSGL
Test: FLIPR assay (inhibition of CXCL10-induced calcium signal)
Details: engineered CHO-K1 cells expressing human CXCR3A coupled to Galpha(16); Fluo-4-AM; CXCL10 agonist 20 nM; mean values where determined several times
test_readout: IC50 (nM)

Cc1cc(C)n(CC(=O)N2CCN(c3ccc(C(F)(F)F)c4c3CN(c3nc(C#N)cs3)CC4)C[C@H]2C)n1 : 29.2
C[C@@H]1CN(c2ccc(C(F)(F)F)c3c2CN(c2ccc(Cl)cc2)CC3)CCN1C(=O)Cn1cnc2cccnc21 : 29.9
Cc1cc(C)n(CC(=O)N2CCN(c3ccc(C(F)(F)F)c4c3CN(c3ncc(C#N)s3)CC4)C[C@H]2C)n1 : 8.88
C[C@@H]1CN(c2ccc(C(F)(F)F)c3c2CN(c2nc4ccc(F)cc4s2)CC3)CCN1C(=O)Cn1ncc2cccnc21 : 73.5
C[C@@H]1CN(c2ccc(C(F)(F)F)c3c2CN(c2cnc(C4CC4)nc2)CC3)CCN1C(=O)Cn1ncc2cccnc21 : 7.27

A = COc1ncc(N2CCc3cccc(N4CCN(C(=O)Cn5cnc6cccnc65)[C@H](C)C4)c3C2)cn1
B = COc1ccc(C(=O)N2CCc3cccc(N4CCN(C(=O)Cn5cnc6cccnc65)[C@H](C)C4)c3C2)cc1
C = COc1ccc(CCC(=O)N2CCc3cccc(N4CCN(C(=O)Cn5cnc6cccnc65)[C@H](C)C4)c3C2)cc1
D = COc1cncc(N2CCc3cccc(N4CCN(C(=O)Cn5cnc6cccnc65)[C@H](C)C4)c3C2)n1
Arrange the 4 entries by IC50 so the values rise. List the labels according to the requested ordering.
D, A, B, C
(D: 2.03 nM, A: 6.49 nM, B: 121 nM, C: 188 nM)

====

Molecular target: human CXCR3A (Homo sapiens (Human), UniProt P49682)
Test: FLIPR assay (inhibition of CXCL10-induced calcium signal)
Conditions: engineered CHO-K1 cells expressing human CXCR3A coupled to Galpha(16); Fluo-4-AM; CXCL10 agonist 20 nM; mean values where determined several times
pIC50: −log10 of the molar value.
test_readout: pIC50

CCOc1ncc(N2CCc3c(F)ccc(N4CCN(C(=O)Cn5cnc6cccnc65)[C@H](C)C4)c3C2)cn1 [Example 129] : 8.51

a = Cc1cc(C)n(CC(=O)N2CCN(c3ccc(C(F)(F)F)c4c3CN(c3ncc(Cn5cccn5)s3)CC4)C[C@H]2C)n1 [Example 1]
b = Cn1c(=O)n(CC(=O)N2CCN(c3cccc4c3CN(C(=O)Cc3ccccc3)CC4)CC2)c2ccccc21 [Example 141]
Kindly compare a with b and tell me which has the lower pIC50 figure. Label of pick, please.
b

====

Target: human CXCR3A (Homo sapiens (Human))
Assay: FLIPR assay (inhibition of CXCL10-induced calcium signal)
Settings: engineered CHO-K1 cells expressing human CXCR3A coupled to Galpha(16); Fluo-4-AM; CXCL10 agonist 20 nM; mean values where determined several times
test_readout: IC50 (nM)

Please review the following examples before continuing.
C[C@@H]1CN(c2cccc3c2CN(c2cnc(OCC(F)(F)F)nc2)CC3)CCN1C(=O)Cn1cnc2cccnc21 : 2.98
COc1ccc(N2CCc3cccc(N4CCN(C(=O)Cn5cnc6cccnc65)[C@H](C)C4)c3C2)nn1 : 10.9
C[C@@H]1CN(c2cccc3c2CN(C(=O)CN2CCOCC2)CC3)CCN1C(=O)Cn1cnc2cccnc21 : 1910
CCOc1ncc(N2CCc3c(C(F)(F)F)ccc(N4CCN(C(=O)Cn5cnc6cccnc65)[C@@H](C)C4)c3C2)cn1 : 16.7
C[C@@H]1CN(c2cccc3c2CN(C(=O)c2ccc(Cl)cc2)CC3)CCN1C(=O)Cn1cnc2cccnc21 : 46.6
C[C@@H]1CN(c2cccc3c2CN(C(=O)OCc2ccccc2)CC3)CCN1C(=O)Cn1cccn1 : 116
C[C@@H]1CN(c2cccc3c2CN(c2nc(C#N)cs2)CC3)CCN1C(=O)Cn1cnc2cccnc21 : 3.7
C[C@@H]1CN(c2cccc3c2CN(C(=O)[C@@H]2CCCc4ccccc42)CC3)CCN1C(=O)Cn1cnc2cccnc21 : 80.2

A = C[C@@H]1CN(c2cccc3c2CN(c2nc(-c4ccccc4)cs2)CC3)CCN1C(=O)Cn1cnc2cccnc21
B = CCOc1ncc(N2CCc3c(C(F)(F)F)ccc(N4CCN(C(=O)Cn5ncc6cccnc65)CC4)c3C2)cn1
C = C[C@@H]1CN(c2cccc3c2CN(C(=O)C2(c4ccccc4)CC2)CC3)CCN1C(=O)Cn1cnc2cccnc21
D = Cn1c(=O)n(CC(=O)N2CCN(c3cccc4c3CN(C(=O)c3ccccc3)CC4)CC2)c2ccccc21
E = C[C@@H]1CN(c2cccc3c2CN(C(=O)CCc2ccc(Cl)cc2)CC3)CCN1C(=O)Cn1cnc2cccnc21
Arrange the 5 entries by IC50 so the values rise. List the labels according to the requested ordering.
B, A, D, E, C
(B: 11.5 nM, A: 34.4 nM, D: 51.2 nM, E: 88.1 nM, C: 199 nM)

a = CCc1csc(N2CCc3c(C(F)(F)F)ccc(N4CCN(C(=O)Cn5nc(C)cc5C)[C@H](C)C4)c3C2)n1
b = CCOc1ncc(N2CCc3cccc(N4CCN(C(=O)Cn5nc(C)nc5C)[C@H](C)C4)c3C2)cn1
Kindly compare a with b and tell me which has the lower IC50 figure. Label of pick, please.
a
(a: 15.1 nM, b: 33.1 nM)

====

Target: human CXCR3A (Homo sapiens (Human))
Assay: FLIPR assay (inhibition of CXCL10-induced calcium signal)
Conditions: engineered CHO-K1 cells expressing human CXCR3A coupled to Galpha(16); Fluo-4-AM; CXCL10 agonist 20 nM; mean values where determined several times
test_readout: IC50 (nM)

Please review the following examples before continuing.
C[C@@H]1CN(c2cccc3c2CN(C(=O)c2cocn2)CC3)CCN1C(=O)Cn1cnc2cccnc21 : 483
CCOc1ncc(N2CCc3c(C(F)(F)F)ccc(N4CCN(C(=O)CN5CCc6cccnc65)[C@@H](C)C4)c3C2)cn1 : 30.9
CCOc1ncc(N2CCc3c(C(F)(F)F)ccc(N4CCN(C(=O)Cn5nc(C)cc5C)[C@@H](C)C4)c3C2)cn1 : 30.8
Cc1cc(C)n(CC(=O)N2CCN(c3ccc(C(F)(F)F)c4c3CN(c3nc(C(F)(F)F)cs3)CC4)C[C@H]2C)n1 : 6.07

a = CCOc1ncc(N2CCc3c(C(F)(F)F)ccc(N4CCN(C(=O)Cn5cc6cccnc6n5)CC4)c3C2)cn1
b = Cc1ccn(CC(=O)N2CCN(c3ccc(C(F)(F)F)c4c3CN(c3cnc(C5CC5)nc3)CC4)C[C@H]2C)n1
c = Cc1cc(C)n(CC(=O)N2CCN(c3ccc(C(F)(F)F)c4c3CN(c3ncc(Br)cn3)CC4)C[C@H]2C)n1
Arrange the 3 entries by IC50 so the values rise. List the labels according to the requested ordering.
b, a, c
(b: 1.4 nM, a: 9.83 nM, c: 27.7 nM)

====

Molecular target: human CXCR3A (Homo sapiens (Human), UniProt P49682)
Assay: FLIPR assay (inhibition of CXCL10-induced calcium signal)
Settings: engineered CHO-K1 cells expressing human CXCR3A coupled to Galpha(16); Fluo-4-AM; CXCL10 agonist 20 nM; mean values where determined several times
test_readout: IC50 (nM)

C[C@@H]1CN(c2cccc3c2CN(C(=O)c2ccccc2)CC3)CCN1C(=O)Cn1cnc2cccnc21 : 92.2

A = C[C@@H]1CN(c2cccc3c2CN(C(=O)COc2ccccc2)CC3)CCN1C(=O)Cn1cnc2cccnc21
B = Cc1ccn(CC(=O)N2CCN(c3ccc(C(F)(F)F)c4c3CN(c3cnc(N(C)C)nc3)CC4)C[C@H]2C)n1
Kindly compare A with B and tell me which has the lower IC50 figure. Label of pick, please.
B

====

Biological target: human CXCR3A (Homo sapiens (Human), UniProt P49682)
Test: FLIPR assay (inhibition of CXCL10-induced calcium signal)
Conditions: engineered CHO-K1 cells expressing human CXCR3A coupled to Galpha(16); Fluo-4-AM; CXCL10 agonist 20 nM; mean values where determined several times
test_readout: IC50 (nM)

a = C[C@@H]1CN(c2cccc3c2CN(C(=O)Cc2ccccc2)CC3)CCN1C(=O)Cn1cnc2cccnc21 [Example 78]
b = C[C@@H]1CN(c2cccc3c2CN(c2ccc(OC(F)(F)F)cc2)CC3)CCN1C(=O)Cn1cnc2cccnc21 [Example 98]
c = C[C@@H]1CN(c2cccc3c2CN(C(=O)c2ccnn2C)CC3)CCN1C(=O)Cn1cnc2cccnc21 [Example 89]
d = CCOc1ncc(N2CCc3cccc(N4CCN(C(=O)Cn5nc(C)cc5C)[C@H](C)C4)c3C2)cn1 [Example 128]
Lab note: arrange the 4 compounds above from lowest to highest IC50. List the labels according to the requested ordering.
d, b, a, c

====

Molecular target: human CXCR3A (Homo sapiens (Human), UniProt P49682)
Experiment: FLIPR assay (inhibition of CXCL10-induced calcium signal)
Conditions: engineered CHO-K1 cells expressing human CXCR3A coupled to Galpha(16); Fluo-4-AM; CXCL10 agonist 20 nM; mean values where determined several times
test_readout: IC50 (µM)

Please review the following examples before continuing.
C[C@@H]1CN(c2cccc3c2CN(c2ccccn2)CC3)CCN1C(=O)Cn1cnc2cccnc21 : 0.00971
Cc1ccc2nc(N3CCc4c(C(F)(F)F)ccc(N5CCN(C(=O)Cn6nc(C)cc6C)[C@H](C)C5)c4C3)sc2c1 : 0.0137
CCOc1ncc(N2CCc3cc(C(F)(F)F)cc(N4CCN(C(=O)Cn5cnc6cccnc65)[C@H](C)C4)c3C2)cn1 : 0.0521
C[C@@H]1CN(c2cccc3c2CN(c2ccc(F)cc2)CC3)CCN1C(=O)Cn1cnc2cccnc21 : 0.0083
C[C@@H]1CN(c2ccc(C(F)(F)F)c3c2CN(c2nc(C(F)(F)F)cs2)CC3)CCN1C(=O)Cn1ncc2cccnc21 : 0.0386
Cc1ccnn1CC(=O)N1CCN(c2ccc(C(F)(F)F)c3c2CN(c2nc(C(F)(F)F)cs2)CC3)C[C@H]1C : 0.0127
Cc1cc(C)n(CC(=O)N2CCN(c3ccc(C(F)(F)F)c4c3CN(c3cnc(C5CC5)nc3)CC4)C[C@H]2C)n1 : 0.00358
C[C@@H]1CN(c2cccc3c2CN(c2ccc(C(F)(F)F)cn2)CC3)CCN1C(=O)Cn1cnc2cccnc21 : 0.0207
C[C@@H]1CN(c2cccc3c2CN(C(=O)Cn2cccn2)CC3)CCN1C(=O)Cn1cnc2cccnc21 : 5.42
Cc1cc(C)n(CC(=O)N2CCN(c3ccc(C(F)(F)F)c4c3CN(c3ncc(-c5ccccc5)o3)CC4)C[C@H]2C)n1 : 0.00814

I = COc1ncc(N2CCc3c(C(F)(F)F)ccc(N4CCN(C(=O)Cn5nccn5)[C@H](C)C4)c3C2)cn1
II = Cc1ccnn1CC(=O)N1CCN(c2ccc(C(F)(F)F)c3c2CN(c2cnc(C4CC4)nc2)CC3)C[C@H]1C
Which shows the larger IC50 value: I or II ? Label of pick, please.
I

A = Cc1nc(C)n(CC(=O)N2CCN(c3cccc4c3CN(c3cnc(C5CC5)nc3)CC4)C[C@H]2C)n1
B = CCOc1ncc(N2CCc3c(C(F)(F)F)ccc(N4CCN(C(=O)Cn5ccc(C)n5)[C@@H](C)C4)c3C2)cn1
Kindly compare A with B and tell me which has the lower IC50 figure. Label of pick, please.
A
(A: 0.00398 µM, B: 0.00627 µM)
